Tested on: P. aeruginosa PA14 wt
Assay: Antibiotic susceptibility
Type: cell-based, Pseudomonas aeruginosa
Details: P. aeruginosa PA14 wt + 1 μg/mL PMBN
Value Type: MIC

Please look up its MIC: C#CCN1CCN(c2cc3c(cc2F)c(=O)c(C(=O)O)cn3C2CC2)CC1 [compound 20, N-Propargyl-ciprofloxacin] 0.025 to 0.5 µg/mL

O=C(CCCCn1cc(CCN2CCN(c3cc4c(cc3F)c(=O)c(C(=O)O)cn4C3CC3)CC2)nn1)Nc1ccc(S[C@@H]2O[C@H](CO)[C@H](O)[C@H](O)[C@H]2O)cc1 [compound 29] ? 32 to 64 µg/mL

O=C(CCCn1cc(CCN2CCN(c3cc4c(cc3F)c(=O)c(C(=O)O)cn4C3CC3)CC2)nn1)Nc1ccc(S[C@@H]2O[C@H](CO)[C@H](O)[C@H](O)[C@H]2O)cc1 [compound 27] ? 32 to 64 µg/mL

O=C(CCn1cc(CN2CCN(c3cc4c(cc3F)c(=O)c(C(=O)O)cn4C3CC3)CC2)nn1)Nc1ccc(S[C@@H]2O[C@H](CO)[C@H](O)[C@H](O)[C@H]2O)cc1 [compound 24] ? 8 to 16 µg/mL

O=C(CCn1cc(CCN2CCN(c3cc4c(cc3F)c(=O)c(C(=O)O)cn4C3CC3)CC2)nn1)Nc1ccc(S[C@@H]2O[C@H](CO)[C@H](O)[C@H](O)[C@H]2O)cc1 [compound 25] ? 32 to 64 µg/mL

O=C(CCCCn1cc(CN2CCN(c3cc4c(cc3F)c(=O)c(C(=O)O)cn4C3CC3)CC2)nn1)Nc1ccc(S[C@@H]2O[C@H](CO)[C@H](O)[C@H](O)[C@H]2O)cc1 [compound 28] ? 2 to 8 µg/mL

O=C(Cn1cc(CCN2CCN(c3cc4c(cc3F)c(=O)c(C(=O)O)cn4C3CC3)CC2)nn1)Nc1ccc(S[C@@H]2O[C@H](CO)[C@H](O)[C@H](O)[C@H]2O)cc1 [compound 23] ? 16 to 64 µg/mL

O=C(Cn1cc(CN2CCN(c3cc4c(cc3F)c(=O)c(C(=O)O)cn4C3CC3)CC2)nn1)Nc1ccc(S[C@@H]2O[C@H](CO)[C@H](O)[C@H](O)[C@H]2O)cc1 [compound 22] ? 4 to 16 µg/mL

---

Tested on: E. coli DSM 1116
Please respond with reported MIC for every item in the list.

Field: MIC (E. coli DSM 1116). Entry: O=C(CCCn1cc(CCN2CCN(c3cc4c(cc3F)c(=O)c(C(=O)O)cn4C3CC3)CC2)nn1)Nc1ccc(S[C@@H]2O[C@H](CO)[C@H](O)[C@H](O)[C@H]2O)cc1 4 to 32 µg/mL

O=C(Cn1cc(CN2CCN(c3cc4c(cc3F)c(=O)c(C(=O)O)cn4C3CC3)CC2)nn1)Nc1ccc(S[C@@H]2O[C@H](CO)[C@H](O)[C@H](O)[C@H]2O)cc1 ? 2 to 4 µg/mL

C[C@@H]1O[C@H](CNS(=O)(=O)c2ccc(CCn3cc(CN4CCN(c5cc6c(cc5F)c(=O)c(C(=O)O)cn6C5CC5)CC4)nn3)s2)[C@@H](O)[C@H](O)[C@@H]1O ? 16 to 32 µg/mL

O=C(CCCCn1cc(CCN2CCN(c3cc4c(cc3F)c(=O)c(C(=O)O)cn4C3CC3)CC2)nn1)Nc1ccc(S[C@@H]2O[C@H](CO)[C@H](O)[C@H](O)[C@H]2O)cc1 ? 4 to 32 µg/mL

O=C(CCn1cc(CN2CCN(c3cc4c(cc3F)c(=O)c(C(=O)O)cn4C3CC3)CC2)nn1)Nc1ccc(S[C@@H]2O[C@H](CO)[C@H](O)[C@H](O)[C@H]2O)cc1 ? 2 to 4 µg/mL

O=C(CCCn1cc(CN2CCN(c3cc4c(cc3F)c(=O)c(C(=O)O)cn4C3CC3)CC2)nn1)Nc1ccc(S[C@@H]2O[C@H](CO)[C@H](O)[C@H](O)[C@H]2O)cc1 ? 2 to 32 µg/mL

O=C(CCCCn1cc(CN2CCN(c3cc4c(cc3F)c(=O)c(C(=O)O)cn4C3CC3)CC2)nn1)Nc1ccc(S[C@@H]2O[C@H](CO)[C@H](O)[C@H](O)[C@H]2O)cc1 ? 4 to 32 µg/mL
